experimental system: Pim2 kinase (Homo sapiens)
Sequence (Q9P1W9 whole entry): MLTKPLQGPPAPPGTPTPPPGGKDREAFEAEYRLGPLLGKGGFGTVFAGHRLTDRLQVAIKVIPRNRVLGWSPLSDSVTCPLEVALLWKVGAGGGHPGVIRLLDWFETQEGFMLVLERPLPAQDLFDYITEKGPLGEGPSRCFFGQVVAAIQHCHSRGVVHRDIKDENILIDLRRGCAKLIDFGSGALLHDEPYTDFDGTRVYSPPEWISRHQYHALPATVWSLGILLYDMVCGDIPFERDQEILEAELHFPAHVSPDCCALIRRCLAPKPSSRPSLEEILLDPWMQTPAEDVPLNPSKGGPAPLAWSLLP
procedure summary: Pim2 ATP depletion assay;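 further: Luciferase-based luminescent readout of ATP remaining after PIM2 phosphorylates a BAD peptide, final 5 nM enzyme, 4 µM ATP, 10 µM peptide, 2.5% DMSO, run to roughly half ATP consumption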
Type: biochemical
experimental setup: read-out: IC50 (μM) PIM2
Measured IC50, listed per entry.

Problem: Data request, read-out IC50, for Nc1ncc(Br)nc1C(=O)Nc1[nH]c(=O)ncc1N1CCCC(F)C1 (centres unmarked) [Example 155]
Result: < 1 µM

Problem: Follow-up entry: COc1cccc(-c2nc(C(=O)Nc3cnccc3N3CCC[C@H](N)C3)c(N)cc2F)n1 [Example 512]
Result: < 1 µM

Problem: Same question, N#Cc1ccc(N2CCCC(N)C2)c(NC(=O)c2nccnc2N)c1 (centres unmarked) [Example 230] this time
Result: < 1 µM

Problem: Try this compound too: Nc1ncc(-c2ccccc2Oc2ccccc2)nc1C(=O)Nc1cnccc1N1CCC(N)CC1 [Example 365]
Result: 1 to 10 µM

Problem: Param item: CO[C@@H]1C[C@H](N)CN(c2ccncc2NC(=O)c2nc(-c3cc(C(=O)NC(C)C)ccc3F)ccc2N)C1 [Example 298]
Result: < 1 µM
